Values from PubChem BioAssay (NCI)

Overview of reported TGI across a group of molecules:
# Test system: T-47D breast
# assay-explanation: NCI tumour cell line growth inhibition, 48 h

Answered examples (3):
CCCCCCCCCCCCCCCCOC[C@H](COC(c1ccccc1)(c1ccccc1)c1ccccc1)O[P+](=S)OC (stereo not given in full); > 100 µM
COc1cc(C(=O)/C=C/c2c(C)n([O-])c3ccc(Cl)cc3[n+]2=O)cc(OC)c1OC; 27.9 µM
C=C(C)C1CCC2(C)C1CCC1(C)C2CCC2C3(C)C4OC(OC4=O)C(C)(C)C3CCC21C (stereo not given); > 100 µM

Requested read-out: TGI. Entry: "O=C(/C=C/c1ccccn1)c1ccccc1"
24.4 µM

Any idea what TGI was measured for "CSC1=C(C)C(/C=N/Nc2ccc([N+](=O)[O-])cc2)=C(C)N(c2ccccc2)S1(=O)=O" ?
> 100 µM

====

Here, each record is paired with measured log10(TGI) data.
# Test system: NCI-H522 lung
# assay-explanation: NCI tumour cell line growth inhibition, 48 h
Parameter value (number): base-10 log of TGI in µM.

Check out these entries, answers already filled in.
N#CC(c1cc(Cl)ncn1)c1nc2cc(C(F)(F)F)ccc2s1 (stereo unspecified); 0.56
CN=C1C=C(/N=C2/C=C(N/C(=C\C#N)C(C)(C)O)OC2(C)C)OC1(C)C; 1.84
COc1ccc(C2CC(c3cccc(Nc4ccncc4)c3)=NN2c2ccccc2)cc1 (stereo unspecified); 0.58
CNc1ccc(CSc2ccc(C)cc2)cc1; 1.37
OCCN1CCCN(CCCN2c3ccccc3Sc3ccc(C(F)(F)F)cc32)CC1; 1.15
COc1ccccc1CNCCCN1C(=O)c2ccc3c4c(ccc(c24)C1=O)C(=O)N(CCCNCCCCN)C3=O; -0.44

Report log10(TGI) for "CCOC(=O)/C(=C/c1cn(C(C)=O)c2ccccc12)P(=O)(OC)OC" tested on NCI-H522 lung.
1.90

Item: Cc1ccc(/C=C2\CCCC(C(NO)c3ccc(C)cc3)C2=NO)cc1 (stereo unspecified) Test system: NCI-H522 lung Read-out: log10(TGI) Value: ?
1.88

What measured log10(TGI) is associated with COc1ccc(C=C2C(C)=NN(c3cccc(Cl)c3)C23C(Cl)C(=O)N3c2nc3ccccc3s2)cc1 (stereo unspecified) on NCI-H522 lung?
1.34

====

# System: A498 renal
# assay-explanation: NCI tumour cell line growth inhibition, 48 h
assay-readout: TGI

Name the reported TGI value associated with the molecule CC1(c2ccc(Cl)cc2)c2ccccc2C(=O)N1CCCN1C(=O)c2ccccc2C1=O (stereo not drawn)
> 100 µM

For the molecule "NC(=O)N1N=C2c3ccccc3OC[C@H]2[C@@H]1c1ccccc1" , what TGI is on record?
> 81.5 µM

Using the record for c1ccc(CN2CCC(CNc3ncnc4ccccc34)C2)cc1 (stereo not drawn) , report its TGI.
> 100 µM

====

# Tested on: BT-549 breast
# assay-explanation: NCI tumour cell line growth inhibition, 48 h
assay-readout: TGI

Consider the following illustrative entries.
NCC1OC(OC2C(N)CC(N)C(O)C2OC2OC(CO)C(O)C2O)C(N)C(O)C1O (stereo unspecified); > 100 µM
COC1CCC(OS(C)(=O)=O)C(C)O1 (stereo unspecified); > 10 µM
CC1CC(C)(C)CC(OCCN2CCCCC2)(c2ccccc2)C1 (stereo unspecified); 27.8 µM
CN1CCC(C(=O)Nc2n[nH]c3nnc(-c4ccccc4)cc23)CC1; > 25 µM
COc1cc2ccc(C(C)NCC#N)cc2cc1OC (stereo unspecified); > 100 µM

Okay, next one:
I'd like to know its TGI. The compound in question is CCOC(=O)CC1(N)CC2c3ccccc3OC(=O)C2C(=O)N1 (stereo unspecified)
> 100 µM
